Substrate: CC1=C(CCC(=O)O)c2cc3nc(cc4[nH]c(cc5[nH]c(cc1n2)c(C)c5CCC(=O)O)c(CCC(=O)O)c4C)C(CCC(=O)O)=C3C
Test: purified protein
Type: biochemical, Corynebacterium glutamicum
Conditions: ferrous ammonium sulfate 100 uM, Tris-HCl pH 8.0, 3.3% Tween 20, 5 mM glutathione, 30 °C
Observed Property: kcat

IN: kcat lookup needed for CpfC (coproporphyrin ferrochelatase) (Corynebacterium glutamicum ATCC 13032; E31V) (protein, heterologously expressed in E. coli BL21, purified) MNERTSDAFDALLVLSFGGPEGHEEVRPFLVNVTHGRGIPPERLDEVAVHYHHFGGISPINALNREIIANVEKELASRDHKLPVYFGNRNWKPFDNEAAEQMADDGVKNALVLATSAWGGYSGCRQYQEDIQGMIKHLESQGQSITFTKLRQFYDHPRFVSTMAQLVQDSYAKLPDELRDEARLVFTAHSIPLTADNAAGTPEDGSLYSTQVKEASALIAEAVGVSDFDVVWQSRSGSPHTPWLEPDIVDHAVELNEKGQKALVVCPVGFISDHMEVIWDLDSELMEEAEKRNMVVERVATVGPTDEFAALVVDLIEEAELKRVIERLGKLPARGSSVNGAPCGDGCCGTAKHKTARVNPNARSAAPAAN , thanks.
OUT: 0.43 s⁻¹
